Assay type: in vivo, human healthy volunteers
Conditions: human, plasma, 10 mg
property-name: AUC(0-inf) (ng·h/mL)
Report only the number, with the unit ng·h/mL understood.

*Q* Any idea what AUC(0-inf) was measured for `CN(C)CCC[C@@]1(c2ccc(F)cc2)OCc2cc(C#N)ccc21` ?
*A* 262

====

Experiment: Drug-drug interaction study, 2D regimen with duloxetine, plasma pharmacokinetics
Assay type: in vivo, human healthy volunteers
Conditions: human, plasma, oral, 60 mg
property-name: AUC(0-inf) (ng·h/mL)
Report only the number, with the unit ng·h/mL understood.

*Q* Any idea what AUC(0-inf) was measured for `CNCC[C@H](Oc1cccc2ccccc12)c1cccs1` ?
*A* 648

====

Test: Drug-drug interaction study, 2D regimen with omeprazole
Format: in vivo, human healthy volunteers
Details: human, plasma, 40 mg
property-name: AUC(0-t) (ng·h/mL)
Report only the number, with the unit ng·h/mL understood.

*Q* Any idea what AUC(0-t) was measured for COc1ccc2[nH]c([S+]([O-])Cc3ncc(C)c(OC)c3C)nc2c1 (stereo not shown) [Omeprazole, omeprazole] ?
*A* 1170

====

# reported change in the Cmax and AUC values upon coadministration; entries follow
Assay: Drug-drug interaction study, 2D regimen with duloxetine, plasma pharmacokinetics
Type: in vivo, human healthy volunteers
Settings: duloxetine + 2D regimen vs alone

Solved entries:
Cc1cnc(C(=O)N[C@H]2CCCCC/C=C\[C@@H]3C[C@@]3(C(=O)NS(=O)(=O)C3CC3)NC(=O)[C@@H]3C[C@@H](Oc4nc5ccccc5c5ccccc45)CN3C2=O)cn1 :: ≤ 10%
CC(C)c1nc(CN(C)C(=O)N[C@H](C(=O)N[C@@H](Cc2ccccc2)C[C@H](O)[C@H](Cc2ccccc2)NC(=O)OCc2cncs2)C(C)C)cs1 :: ≤ 10%
COC(=O)N[C@H](C(=O)N1CCC[C@H]1C(=O)Nc1ccc([C@@H]2CC[C@@H](c3ccc(NC(=O)[C@@H]4CCCN4C(=O)[C@@H](NC(=O)OC)C(C)C)cc3)N2c2ccc(C(C)(C)C)cc2)cc1)C(C)C :: ≤ 10%

*Q* Any idea what change in the Cmax and AUC values upon coadministration was measured for `CNCC[C@H](Oc1cccc2ccccc12)c1cccs1` ?
*A* ≤ 20%
